Test system: Plasmodium falciparum Sir2 (PF13_0152, Sir2A)
Assay: pfSir2 binders on small-molecule microarrays, primary screen, biochemical, small-molecule microarray, 635 nm fluorescence (AID 1098);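 also: score merges spot fluorescence intensity with its signal-to-noise ratio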
Settings: small-molecule microarray binding, fluorescence 635 nm; higher = more signal
The entries below come with measured composite z-score values attached.
Write the value as a bare number.

Example entries and their recorded answers appear below.
CC[C@H]1C2=C3C(CC[C@H]4C(OCc5ccc(F)cc5C(F)(F)F)OC[C@](C)([C@@H]34)N(C(=O)OC(C)(C)C)C2)C(COC)C1COC (some centres not stated)    -0.0539
COCCCNC(=O)[C@@]1(Cc2ccccc2N=[N+]=[N-])N=C(c2ccc(OCCCO)cc2)O[C@H]1c1ccccc1    1.55
COC(=O)C(CC#Cc1ccc2c(c1)[C@]1(C(=O)N2)[C@H](C(=O)N2CCN(c3ncccn3)CC2)[C@H]2C(=O)O[C@H](c3ccccc3)[C@H](c3ccccc3)N2[C@@H]1c1ccc(OCCO)cc1)C(=O)OC    1.22
CC(C)(C)OC(=O)CC[C@@]1(C(=O)NCc2ccccc2)N=C(c2ccc(OCCCO)cc2)O[C@@H]1c1ccccc1N=[N+]=[N-]    0.71
CC(CO)N1C(=O)[C@@H]2[C@H]3C(=O)OCC=C[C@H]3OC23C=CCN(Cc2ccccc2)C(=O)[C@@H]13 (some centres not stated)    0.978
C=C(C)c1cc2c(c(CCCCCC)n1)[Si](C(C)C)(C(C)C)OC2    -0.491

input: What value of composite z-score has been reported for the following compound? `COC(=O)[C@@]1(Cc2ccc(OC)cc2)[C@H]2c3cc(C(=O)N4CCCC4)n(Cc4c(-c5ccccc5)noc4C)c3C[C@H]2CN1C(=O)c1ccccc1`
output: 0.743

----------
Biological target: Dickkopf-related protein 1 (Homo sapiens) (UniProt O94907)
Sequence (O94907 whole entry, looked up): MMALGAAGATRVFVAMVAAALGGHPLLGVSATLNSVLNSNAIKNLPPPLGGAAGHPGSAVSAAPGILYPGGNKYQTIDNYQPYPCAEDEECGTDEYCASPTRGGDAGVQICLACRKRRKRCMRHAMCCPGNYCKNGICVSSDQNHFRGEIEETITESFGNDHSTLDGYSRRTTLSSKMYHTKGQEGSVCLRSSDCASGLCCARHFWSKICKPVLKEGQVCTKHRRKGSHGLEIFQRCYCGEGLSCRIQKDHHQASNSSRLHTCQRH
Assay: DKK1 binders on small-molecule microarrays, primary screen, biochemical, small-molecule microarray, 635 nm fluorescence scan (AID 1106);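 also: score merges emission near 667 nm with signal to noise over three replicate slides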
Conditions: DKK1 binding, higher = more signal
readout: composite z-score
Could you respond with only the numeric value?

N#Cc1ccc(C(O)C2C=CC3C(=O)N(c4ccccc4)C(=O)C3N2Nc2ccccc2)cc1 (configuration not stated)    -0.352

input: Give the measured composite z-score of CC=CC(O)C1C=CC2C(=O)N(c3ccccc3)C(=O)C2N1Nc1ccccc1F (configuration not stated) .
output: 0.0324

input: Recorded composite z-score for `COCCCNC(=O)[C@@]1(Cc2ccccc2CN=[N+]=[N-])N=C(c2ccc(OCCCO)cc2)O[C@H]1c1ccccc1` , please?
output: -0.497

----------
Target: NADPH oxidase 5 (Homo sapiens)
Assay: NOX5-dependent H2O2 signal modulators, primary screen, NOX inhibitor project, cell-based, HEK293-NOX5, Amplex Red fluorescence (AID 1161)
Conditions: HEK293-NOX5, ionomycin, 45 min, higher = more signal
Quick reference for z-score among some molecules

COC(=O)C1=CC(CCCO)=CC(C2CC2)N(C)C=C1C(=O)OC (configuration not stated)    0.663
O=C1NC(=O)C2C1C=CC(C(O)c1cccc3ccccc13)N2Nc1ccc(Cl)cc1Cl (configuration not stated)    -3.5
N#Cc1ccc(NN2C(C(O)c3ccc(F)cc3)C=CC3C(=O)N(c4ccccc4)C(=O)C32)cc1 (configuration not stated)    -2.9

input: So what's the measured z-score for this one? `O=C1O[C@@H](c2ccccc2)[C@@H](c2ccccc2)N2[C@@H](c3ccc(O)cc3)[C@]3(C(=O)Nc4ccc(C#CC5(O)CCCCCC5)cc43)[C@@H](C(=O)NC[C@H](O)c3ccccc3)[C@H]12`
output: 0.0466

input: Sample CC(CO)N1C(=O)[C@@H]2[C@H]3C(=O)OCC=C[C@H]3OC23C=CCN(C(C)(C)C)C(=O)[C@@H]13 (some centres not stated) — what was its z-score?
output: 1.43

input: # input molecule: `COC(=O)[C@@]1(Cc2ccc(F)cc2)[C@H]2c3cc(C(=O)N(C)C)n(Cc4cc(F)cc5c4OCOC5)c3C[C@H]2CN1C(=O)c1ccccc1` ; wanted: its z-score
output: -3.94

input: Field request: z-score | item: `COC(=O)c1nc2oc1CC[C@@H](CO)NC(=O)N(C)Cc1cnnn1C[C@H](Cc1ccccc1)NC2=O`
output: 0.371

----------
Test: fission yeast growth modulation, primary screen, strain 972, OD600, 24 h, no modulator (AID 1090);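 also: basal condition with compound alone and no growth modifier present; test concentration not given here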
Details: S. pombe 972 growth, higher = more signal, called active from +8 up or from −8 down
Activity calls are given as the source filed them.
Recorded z-score values for a group of molecules are listed next.

Take a look at these entries with their results.
C=CCNC(=O)[C@H]1[C@@H]2C(=O)O[C@@H](c3ccccc3)[C@@H](c3ccccc3)N2[C@@H](c2ccc(O)cc2)[C@]12C(=O)Nc1ccc(C#CC3(O)CCCCCC3)cc12    0.369 (inactive)
CC(C)[Si](C#C[Si](C(C)C)(C(C)C)C(C)C)(O[C@H](C)c1cn([C@H](CO)Cc2ccccc2)nn1)C(C)C    -0.644 (inactive)
CCOC(=O)C[C@H]1[C@H](OC(=O)c2ccccc2-c2ccccc2)[C@@H](NC(=O)c2ccc(-c3ccccc3)cc2)c2cc(OCCCO)ccc2N1C(=O)c1ccc2ccccc2n1    0.632 (inactive)

input: Query (molecule): C=CCC(OC(C)=O)[C@@H]1[C@@H](N(Cc2cc3ccccc3o2)C(=O)Cc2ccc(F)cc2)c2cc(OCCCO)ccc2N1C(=O)c1ccc2ccccc2c1 (stereo partly drawn) ; field requested: z-score
output: 0.716 (inactive)

input: Reported z-score, molecule `CC(=O)NCCCC[C@@H]1NC(=O)[C@H]2C[C@@H](C(=O)NCCCC[N+](C)(C)C)[C@@H](c3cccc(OCCO)c3)N2C1=O` : ____
output: -1.27 (inactive)

input: Entry `COCCOC(=O)N1C(=O)[C@@]2(c3cc(C#Cc4ccc(OC)cc4)ccc31)[C@H](C(=O)Nc1nc3ccccc3s1)[C@H]1C(=O)O[C@H](c3ccccc3)[C@H](c3ccccc3)N1[C@@H]2c1ccc(O)cc1` : reported z-score = ?
output: 0.842 (inactive)

input: Looking for the measured z-score of `O=C(N1CCCCC1)[C@@]1(CCS(=O)(=O)c2ccccc2)COC(c2ccc(OCCCO)cc2)=N1` , can you help?
output: -1.25 (inactive)

input: Look at this molecule and give its reported z-score. `CC(C)(C)OC(=O)CC[C@]1(C(=O)NCc2ccccc2)N=C(c2ccc(OCCCO)cc2)O[C@H]1c1ccccc1CN=[N+]=[N-]`
output: 0.0256 (inactive)

input: # z-score lookup, item `COC(=O)[C@@]1(Cc2ccc(OC)cc2)[C@H]2c3cc(C(=O)N(C)C)n(Cc4ccc(Cl)c(C(F)(F)F)c4)c3C[C@H]2CN1C(=O)c1ccccc1`
output: 1.38 (inactive)

input: Quick one: z-score of `O=C1O[C@H](c2ccccc2)[C@H](c2ccccc2)N2[C@H]1[C@@H](C(=O)O)[C@]1(C(=O)Nc3ccc(C#CC4=CCCCC4)cc31)[C@H]2c1ccc(O)cc1` ?
output: -0.113 (inactive)

----------
Recorded z-score, one value per entry.
Test: fission yeast growth modulation, primary screen, strain 972, OD600, 24 h, no modulator (AID 1090);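 also: basal condition with compound alone and no growth modifier present; test concentration not given here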
Settings: S. pombe 972 growth, higher = more signal, called active from +8 up or from −8 down
Would you mind answering with just the numeric figure?

For orientation, consider the following solved cases.
COC(=O)[C@@]1(Cc2ccc(F)cc2)[C@H]2c3cc(C(=O)N4CCCC4)n(CCc4ccc(O)c(O)c4)c3C[C@H]2CN1C(=O)c1ccccc1    1.16
CO[C@H]1O[C@H](CO)[C@@H](OC(=O)Nc2ccc3c(c2)OCO3)[C@H](OC(=O)c2cc3ccccc3[nH]2)[C@H]1OC(=O)c1cc2ccccc2[nH]1    -0.908
CCOC(=O)C1=CC[C@@H](c2cccc(Cl)c2)N(S(=O)(=O)c2ccc(C)cc2)C1    -0.0856
COc1ccc([Si](C)(C)[C@H]2[C@H](CCn3cc([C@H](O)c4ccccc4)nn3)O[C@@]3(C(=O)N(Cc4ccc(N5C(=O)c6cccc7cccc5c67)cc4)c4ccccc43)[C@@H]2C)cc1    1.17
COCCOC(=O)N1C(=O)[C@@]2(c3cc(C#Cc4ccc(OC)cc4)ccc31)[C@H](c1ccc(O)cc1)N1[C@H](c3ccccc3)[C@H](c3ccccc3)OC(=O)[C@H]1[C@@H]2C(=O)N1CCCCCCC1    -0.239
O=C1O[C@@H](c2ccccc2)[C@@H](c2ccccc2)N2[C@@H](c3ccc(O)cc3)[C@]3(C(=O)Nc4ccc(C#CC5(O)CCCCCC5)cc43)[C@@H](C(=O)NC[C@H](O)c3ccccc3)[C@H]12    -0.0625

input: If you can, please state the reported z-score value of CC(C)N1CC=CC23O[C@@H]4C=CCOC(=O)[C@@H]4[C@H]2C(=O)N(CCCO)[C@@H]3C1=O (stereo partly drawn) .
output: -2.28

input: Would you mind telling me what z-score value was observed for `Cc1ccc(S[C@]2(C(=O)O)CC(=O)N(Cc3cc(C(F)(F)F)cc(C(F)(F)F)c3)[C@@H]2c2ccc(CO)cc2)cc1` ?
output: -0.539

input: Sample `COC(=O)[C@@]1(Cc2ccc(F)cc2)[C@H]2c3cc(C(=O)N4CCCC4)n(CCN4CNCC4=O)c3C[C@H]2CN1C(=O)c1ccccc1` — what was its z-score?
output: -0.198

input: Return reported z-score; argument: O=C1OCC=C[C@H]2OC34C=CCN(Cn5nnc6ccccc65)C(=O)[C@H]3N(CCCO)C(=O)[C@@H]4[C@@H]12 (stereo partly drawn)
output: -0.883

input: // lookup z-score for `COc1ccc(-c2nc(-c3ccccc3)c3c(c2C)CO[Si]3(C(C)C)C(C)C)cn1`
output: -0.391

input: I'd like to know its z-score. The molecule in question is `COc1ccc([Si](C)(C)[C@@H]2[C@@H](CC(=O)N(CCO)Cc3ccccc3)O[C@]3(C(=O)N(c4ccccc4)c4ccccc43)[C@H]2C)cc1`
output: 0.001

input: Please report the recorded z-score for CC(C)(C)OC(=O)CC[C@]1(C(=O)NCC(O)CO)N=C(c2ccc(OCCCO)cc2)O[C@H]1c1ccccc1 (stereo partly drawn) .
output: -0.956
